Target: hPTP1B1-400 (Homo sapiens)
Sequence (P18031 1-400): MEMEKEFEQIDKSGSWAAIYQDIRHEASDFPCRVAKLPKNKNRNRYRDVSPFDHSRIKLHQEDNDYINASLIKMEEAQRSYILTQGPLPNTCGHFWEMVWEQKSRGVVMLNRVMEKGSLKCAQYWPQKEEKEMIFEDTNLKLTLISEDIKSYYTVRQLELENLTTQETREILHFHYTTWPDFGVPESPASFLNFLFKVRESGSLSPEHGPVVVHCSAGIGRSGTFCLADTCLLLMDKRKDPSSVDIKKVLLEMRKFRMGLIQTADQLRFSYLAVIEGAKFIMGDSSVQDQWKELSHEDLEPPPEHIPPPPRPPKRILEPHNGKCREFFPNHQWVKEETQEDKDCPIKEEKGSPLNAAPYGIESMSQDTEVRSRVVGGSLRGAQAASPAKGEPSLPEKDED
Assay: PTP1B inhibition assay (spectrophotometric, 4-nitrophenyl phosphate)
Type: biochemical
Settings: negative log of the IC50 in Molar; read-out: pIC50 (converted)
Procedure: The inhibitory activity was determined as a percentage compared to the blank (Buffer) according to the following equation: %InhibitionPTP1B=1−A405s/A405b×100%, (1) where A405(s) is the ΔA of the sample (At20 − At0), A405(b) is the ΔA of the blank obtained in the same manner as that of the sample. Using the data obtained, the enzyme inhibition curve was plotted, for which the average percentage of inhibition was plotted as a function of the inhibitor concentration.
parameter measured: IC50 (µM)

compound="C=C(C)[C@H]1COc2c(C)cc3oc4c(C[C@H](O)C(C)(C)O)ccc(O)c4c(=O)c3c2[C@@H]1O [Compound 7, Tajixanthone hydrate]" data_value=83.2
compound="O=C(OCC1OC(Oc2c(-c3ccc(O)c(O)c3)oc3cc(O)cc(O)c3c2=O)C(O)C(O)C1O)c1ccccc1 (stereo not drawn)" data_value=89.1
compound="CC(=CCCC(C)C1CCC2(C)C3=C(CCC12C)C1(C)CCC(=O)C(C)(C)C1CC3)C(=O)O (stereo not drawn)" data_value=417
compound="CCC(C=CC(C)C1CCC2C3=CCC4CC(O)CCC4(C)C3CCC21C)C(C)C (stereo not drawn)" data_value=1000
compound="CC(=O)OCC(C)C1CCC2(C)C1CCC1(C)C2CCC2C3(C)CCCC(C)(C)C3CCC21C (stereo not drawn) [Compound 90, 21-α-H-Hopane acetate]" data_value=891
compound="COc1cc(-c2cc(=O)c3c(O)c(O)c(OC)cc3o2)ccc1O [Compound 5, 4',5,6-Trihydroxy-3',7-dimethoxyflavone]" data_value=57.5

---

Molecular target: hPTP1B1-400 (Homo sapiens, UniProt P18031)
Sequence (P18031 1-400): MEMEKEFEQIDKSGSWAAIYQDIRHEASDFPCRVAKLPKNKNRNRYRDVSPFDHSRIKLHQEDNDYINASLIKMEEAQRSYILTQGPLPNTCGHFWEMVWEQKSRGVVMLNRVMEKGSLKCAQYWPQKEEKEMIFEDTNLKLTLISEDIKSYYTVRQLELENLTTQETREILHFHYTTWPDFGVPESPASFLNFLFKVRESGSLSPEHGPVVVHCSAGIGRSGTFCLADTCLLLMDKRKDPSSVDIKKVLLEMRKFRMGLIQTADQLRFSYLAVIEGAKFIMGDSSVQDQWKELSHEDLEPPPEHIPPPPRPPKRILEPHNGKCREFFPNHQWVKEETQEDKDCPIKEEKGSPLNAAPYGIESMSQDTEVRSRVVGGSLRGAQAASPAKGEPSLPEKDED
Test: PTP1B inhibition assay (spectrophotometric, 4-nitrophenyl phosphate)
Assay type: biochemical
Conditions: DoseResp model fit, Origin 8.0; axis C (mM); read-out: LOGx0 of the IC50 curve
parameter measured: IC50 (mM)

molecule_smiles=COc1c(O)cc2ccc3cccc(O)c3c2c1OC measured_target="hPTP1B1-400 (Homo sapiens, UniProt P18031)" parameter_measured=IC50 reading_unit=mM data_value=0.0477
molecule_smiles=COc1cc(=O)oc2c(O[C@@H]3O[C@H](CO)[C@@H](O)[C@H](O)[C@H]3O)ccc(C)c12 measured_target="hPTP1B1-400 (Homo sapiens, UniProt P18031)" parameter_measured=IC50 reading_unit=mM data_value=0.166
molecule_smiles=CC(C)(O)CCC(=O)[C@](C)(O)[C@H]1[C@H](O)C[C@@]2(C)[C@@H]3CC=C4[C@@H](C[C@H](O)[C@@H](O[C@@H]5O[C@H](CO)[C@@H](O)[C@H](O)[C@H]5O)C4(C)C)[C@]3(C)C(=O)C[C@]12C measured_target="hPTP1B1-400 (Homo sapiens, UniProt P18031)" parameter_measured=IC50 reading_unit=mM data_value=0.358
molecule_smiles=CN1C(=O)c2ccccc2-n2c(nc3ccccc3c2=O)[C@@H]1Cc1ccccc1 measured_target="hPTP1B1-400 (Homo sapiens, UniProt P18031)" parameter_measured=IC50 reading_unit=mM data_value=0.424
